Data provenance is PubChem BioAssay (NCATS).

- Test system: HaCat
- assay text: Cytotoxic Profiling of Annotated Libraries Using Quantitative High-Throughput Screening (AID 1296008); note: % is set by controls: 0 for no effect and ±100 for the full control effect; nearly all actives have a fitted effect of over 60% in size
- details: Five cell lines viability, CellTiter-Glo ATP luminescence, 48-72 h; stronger effect = lower value
Records with an inconclusive call do not appear.

{"columns": ["compound", "max response [%]"],
 "data": [
  ["CCOC(=O)C(CCc1ccccc1)NC1CCCN2CCCC(C(=O)O)N2C1=O (stereo not drawn)", 1.44],
  ["Cn1nccc1-c1ccccc1Oc1ccc(S(=O)(=O)Nc2nccs2)cc1C#N", -17.4],
  ["CC1=C[C@H](O)[C@H]2C(C)(C)CCC[C@]2(C)[C@@]1(O)CO", 3.1],
  ["CC1CCC2C(C(=O)O)=CC3(O)CC(C)(C)CC123 (stereo not drawn)", 0.596],
  ["CC(C(=O)Nc1cc(C#N)ccc1CCCC(=O)O)c1ccc(F)c2ccccc12 (stereo not drawn)", -4.32],
  ["CC1=C2C(=O)C=C(CO[C@@H]3O[C@H](CO)[C@@H](O)[C@H](O)[C@H]3O)[C@@H]2[C@H]2OC(=O)[C@H](C)[C@@H]2[C@@H](O)C1", 0.75],
  ["O=C(NC1Cc2ccccc2N(C[C@@H](O)CO)C1=O)c1cc2cc(Cl)sc2[nH]1 (stereo partly drawn)", -0.0172],
  ["C=C1CC[C@]2(C(=O)O[C@@H]3O[C@H](CO)[C@@H](O)[C@H](O)[C@H]3O)CC[C@]3(C)C(=CCC4[C@@]5(C)C[C@H](O)[C@@H](O[C@@H]6O[C@H](C(=O)O)[C@@H](O)[C@H](O)[C@H]6O)[C@](C)(C=O)C5CC[C@]43C)C2C1 (stereo partly drawn)", -21.8]
]}

----------
- Tested on: NIH3T3
- assay text: qHTS assay to identify novel small-molecules to repurpose for Merkel cell carcinoma treatment (AID 1296009); note: nearly all actives have a fitted effect of over 60% in size
- details: MCC and control cell lines, CellTiter-Glo viability, 72 h; at 44.8 µM (top of the series) unless noted
Inconclusive results are not listed. Calls of active or inactive are those of the source. Calls follow the shape of the dose curve; as a rule, active = well fitted inhibition curve with a large enough effect; inconclusive = small, poorly fitted or top-dose-only effect; inactive = flat fitted curve, though single readings scatter.

{"columns": ["compound", "outcome"],
 "data": [
  ["CC(=O)OC12CC(C)C(O)C1/C=C(/COC1OC(CO)C(O)C(O)C1O)CCC1C(/C=C(\\C)C2=O)C1(C)C (stereo not drawn)", "inactive [at 17.4 µM]"],
  ["C=C1CC[C@@H]2C(C)(C)CCC[C@@]2(C)[C@@H]1CC/C(=C/C(=O)OC)COC(C)=O", "inactive"],
  ["CC(C)=CCC(O)[C@](C)(O)C1[C@H](O)C[C@@]2(C)C3CC=C4C(C[C@H](O)[C@@H](O[C@@H]5O[C@H](CO)[C@@H](O)[C@H](O)[C@H]5O)C4(C)C)[C@]3(C)C(=O)C[C@]12C (stereo partly drawn)", "inactive [at 17.4 µM]"],
  ["CC12CC(c3ccoc3)OC(=O)C1CCC1(C)C2CCC(O)C1(C)O (stereo not drawn)", "inactive"],
  ["CCC(C)C1NC(=O)C2C(C)CCN2C(=O)C(CC(O)CO)OC(=O)CCNC(=O)C(C)N(C)C(=O)C(C(C)C)N(C)C1=O (stereo not drawn)", "inactive [at 17.4 µM]"],
  ["Nc1ncnc2c1C(=O)N(c1ccc(C3CCC(CC(=O)O)CC3)cc1)CCO2 (stereo not drawn)", "inactive"],
  ["O=C(C[C@@H]1C(C(=O)O)=CO[C@@H](O[C@@H]2O[C@H](CO)[C@@H](O)[C@H](O)[C@H]2O)/C1=C\\CO)OCCc1ccc(O)c(O)c1", "inactive [at 17.4 µM]"],
  ["CCN(CCN(C)C)C(=O)CNCc1cc(C(N)=O)ccn1", "inactive"],
  ["C=C(CC/C=C(\\C)C(=O)O)C1(O)CC=C(C)CC1 (stereo not drawn)", "inactive"],
  ["CC(C)=CCC[C@](C)(O[C@@H]1O[C@H](CO[C@@H]2OC[C@H](O)[C@H](O)[C@H]2O)[C@@H](O)[C@H](O)[C@H]1O)[C@H]1CC[C@]2(C)[C@@H]1[C@H](O)C[C@@H]1[C@@]3(C)CC[C@H](O[C@@H]4O[C@H](CO)[C@@H](O)[C@H](O)[C@H]4O[C@@H]4O[C@H](CO)[C@@H](O)[C@H](O)[C@H]4O)C(C)(C)[C@@H]3CC[C@]12C", "inactive [at 17.4 µM]"],
  ["C[C@]12CCC[C@](C)(C(=O)O)C1[C@@H](O)[C@@H](O)C13CC(CCC12)C(CO)(O[C@@H]1O[C@H](CO)[C@@H](O)[C@H](O)[C@H]1O)C3 (stereo partly drawn)", "inactive [at 17.4 µM]"],
  ["C=C1CC/C=C(/C(=O)O)CCC2C1CC2(C)C (stereo not drawn)", "inactive"],
  ["C=C1CCC2C(C)(C)CC(O)CC2(C)C1CCC(C)CCOC(=O)CCC(=O)O (stereo not drawn)", "inactive [at 17.4 µM]"],
  ["Cc1occc(=O)c1O[C@@H]1O[C@H](CO)[C@@H](O)[C@H](O)[C@H]1O", "inactive"],
  ["CC(C)C1(O)C=C2C(=O)CC3C(C)(C(=O)O)CCCC3(C)C2CC1 (stereo not drawn)", "inactive"],
  ["Cc1c(O)cc2c(c1O)COC1(O)CCCOC21 (stereo not drawn)", "inactive"],
  ["CC(=O)O[C@@H]1[C@H](O[C@@H]2O[C@H](CO)[C@@H](O)[C@H](O)[C@H]2O)[C@@H](O[C@@H]2O[C@@H](C)[C@H](O)[C@@H](O[C@@H]3O[C@H](CO)[C@@H](O)[C@H](O)[C@H]3O)[C@H]2O)[C@H](OC(=O)[C@]23CCC(C)(C)C[C@H]2C2=CCC4[C@@]5(C)C[C@H](O)[C@H](O[C@@H]6O[C@H](C(=O)O)[C@@H](O)[C@H](O)[C@H]6O)[C@@](C)(C(=O)O)C5CC[C@@]4(C)[C@]2(C)CC3)O[C@@H]1C (stereo partly drawn)", "inactive [at 9.27 µM]"],
  ["O=C(O)/C=C/c1ccc(O[C@@H]2O[C@H](CO)[C@@H](O)[C@H](O)[C@H]2O)cc1", "inactive"],
  ["CN1CCc2cc(Cl)c(O)cc2[C@@H](c2cccc3c2OCC3)C1", "inactive"],
  ["C=Cc1cc2oc(-c3ccc(O)c(F)c3)nc2cc1O", "inactive"],
  ["O=C(OC[C@H]1O[C@@H](Oc2ccccc2COC(=O)C2(O)C=CCCC2O)[C@H](O)[C@@H](O)[C@@H]1O)c1ccccc1 (stereo partly drawn)", "inactive [at 17.4 µM]"],
  ["C=CC(C)(O)CC/C=C(\\C)C(=O)O[C@@H]1[C@@H](O)[C@H](OC(C)(C=C)CC/C=C(\\C)C(=O)O)O[C@H](CO)[C@H]1OC(=O)/C(C)=C/CCC(C)(O)C=C (stereo partly drawn)", "inactive [at 17.4 µM]"],
  ["C=C(COC(=O)CC(C)C)C1Cc2cc(C(C)=O)ccc2O1 (stereo not drawn)", "inactive"],
  ["C/C(=C\\CCC(C)CCO)C(=O)OC[C@H]1O[C@@H](O[C@@H]2OC=C(C(=O)O)[C@H]3CC[C@](C)(O)[C@@H]23)C(O)[C@@H](O)C1O (stereo partly drawn)", "inactive [at 17.4 µM]"],
  ["COc1cc(/C=C/C(=O)O[C@@H]2C[C@@](O)(C(=O)O)C[C@@H](O)[C@@H]2O)ccc1O", "inactive"],
  ["CC/C=C\\[C@H](O)[C@H](O)C1=C(C)C(=O)[C@]2(O1)C(=O)N[C@@](O)(C(=O)c1ccccc1)[C@@H]2O", "inactive [at 17.4 µM]"],
  ["CC1(C)CCC2(C(=O)O)C(O)CC3(C)C(=CCC4C5(C)CCC(OC6OC(CO)C(O)C(O)C6OC6OC(CO)C(O)C(O)C6OC6OCC(O)(CO)C6O)C(C)(C)C5CCC43C)C2C1 (stereo not drawn)", "inactive [at 9.27 µM]"],
  ["C=C[C@]1(C)C[C@@H](OC(=O)CSC2C[C@H]3CC[C@@H](C2)N3C)[C@]2(C)[C@H](C)CC[C@]3(CCC(=O)[C@H]32)[C@@H](C)[C@@H]1O (stereo partly drawn)", "inactive"]
]}

----------
- assay text: Primary fluorescence-based thiol-reactive (MSTI) qHTS assay for identification of artifact compounds. (AID 1845221); note: nearly all actives have a fitted effect of over 65% in size
- details: MSTI thiol-reactivity probe, 1 h; series mostly up to 53.8 µM
Records with an inconclusive call do not appear. Activity calls are given as the source filed them. Calls come from the whole dose curve; as a rule, active = well fitted inhibition curve with a large enough effect; inconclusive = small, poorly fitted or top-dose-only effect; inactive = no such curve, though single readings can be large or run the other way.
Classes used: label 1 = active, label 0 = inactive

{"columns": ["compound", "label value"],
 "data": [
  ["C[C@]1(O)CC[C@@H]2C(C(=O)O)=CO[C@@H](O[C@@H]3O[C@H](COC(=O)/C=C/c4ccc(O)c(O)c4)[C@@H](O)[C@H](O)[C@H]3O)[C@@H]21", "label 1"],
  ["CSCC1OC(n2cnc3c(N)ncnc32)C(O)C1O (stereo unspecified)", "label 0"],
  ["C[C@@H]1C[C@H]2OC(=O)[C@@]3(C)CCC[C@](C)(C23)[C@@]1(O)CCC1=CC(=O)OC1O (stereo partly specified)", "label 1"],
  ["C[C@@H]1O[C@@H](OC[C@H]2O[C@@H](OCc3ccccc3)[C@H](O)[C@@H](O)[C@@H]2O)[C@H](O)[C@H](O)[C@H]1O", "label 1"],
  ["COc1ccc(CC(NC(C)=O)C(=O)O)cc1 (stereo unspecified)", "label 1"],
  ["Cc1oc2nc3c(c(NC(=O)CN4CCCC4=O)c2c1C)CCCC3", "label 0"],
  ["O=C(/C=C/c1ccccc1)OC[C@H]1O[C@@H](OC(=O)c2cc(O)c(O)c(O)c2)[C@H](O)[C@@H](O)[C@@H]1O", "label 1"],
  ["COc1ccnc2[nH]cc(C(=O)C(=O)N3CCN(C(=O)c4ccccc4)CC3C)c12 (stereo unspecified)", "label 0"],
  ["COc1ccnc(CCc2nc3ncccc3[nH]2)c1", "label 0"],
  ["COc1ccc(OC2OC(CO[C@@H]3O[C@@H](C)[C@H](O)[C@@H](O)[C@H]3O)C(O)C(O)C2O)cc1OC (stereo partly specified)", "label 1"],
  ["C/C=C(\\C)C(=O)O[C@H]1C=CC(=O)O[C@H]1/C=C/[C@H](O)[C@@H](C)O", "label 0"],
  ["CC(/C=C/C=C(\\C)C(=O)O[C@@H]1O[C@H](CO[C@@H]2O[C@H](CO)[C@@H](O)[C@H](O)[C@H]2O)[C@@H](O)[C@H](O)[C@H]1O)=C\\C=C\\C=C(C)\\C=C\\C=C(/C)C(=O)O[C@@H]1C[C@](O)(C(=O)O)C[C@@H](O)[C@H]1OC(=O)/C=C/c1ccc(O)c(O)c1", "label 1"],
  ["COc1cc(O)c(C(=O)O)c(CCc2ccccc2)c1", "label 0"],
  ["CC/C=C\\C(O)C(O)C1=C(C)C(=O)C2(O1)C(=O)NC(OC)(C(=O)c1ccccc1)C2O (stereo unspecified)", "label 1"],
  ["N#CN1CCC[C@@H](n2nc(-c3ccc(Oc4ccc(F)cc4F)cc3)c(C(N)=O)c2N)C1", "label 0"],
  ["CC(C)CC(=O)OC[C@@]1(O)C[C@@]23CC[C@H]4[C@@](C)(CCC[C@@]4(C)C(=O)O)[C@@H]2CC[C@@H]1C3", "label 0"]
]}
